- System: Red root pigweed (Amaranthus)
- EXPERIMENT: Preliminary herbicide seed germination test (pre-emergent), Amaranthus
- Type: in vivo, Amaranthus retroflexus
- Parameters: key: 5: no seedling emerged; 4: few seedlings emerged and/or very severe stunting; 3: moderate reduction in stand and/or moderate stunting; 2: very slight reduction in stand and/or slight stunting; 1: no injury; seedlings appear no different with respect to stand or growth than untreated controls
- STUDY_CONDITIONS: Table I; ten to twelve days after application
READOUT_TYPE: Pre-emergent Herbicidal, Amaranthus (injury rating)

Cc1ccc(C2C(=O)CCC2=O)c(C)c1 : 5
Cc1ccc(C)c(C2C(=O)CCC2=O)c1 : 3
O=C1CCC(=O)C1c1ccc(Cl)cc1Cl : 1
Cc1ccccc1C1C(=O)CCC1=O : 1
Cc1ccc(C)c(C2C(=O)CC(C)C2=O)c1 (stereo not drawn) : 3
Cc1ccc(C)c(C2C(=O)C3CCCCC3C2=O)c1 (stereo not drawn) : 1
O=C1CCC(=O)C1c1ccccc1Cl : 1
Cc1ccc(C2C(=O)C3CCCCC3C2=O)c(C)c1 (stereo not drawn) : 5
Cc1ccccc1C1C(=O)C2CCCCC2C1=O (stereo not drawn) : 3
